# assay.info: label from the status in PepcDB records
measurement.name: protein production

These solved cases illustrate the format of a correct answer.
sequence	obs.value
TRGSAQMQPYFEELLLSLGPILKNITNSMVISGHTDSTPYAGSLFTNWELSSERALLARRVLERGGVKRDQVIQVTGMADQVPYITSDTAAAANRRIEALILTS	failed
MKWPWWPVCVPLSKRLTLPLPSTANPVVQPSRLALACANRLFEAADNRERFLQALMTPPAYPATVLWCGEPAAALPFAALPPLPWQPPWVSRFVAGSPTGQHPLHAAGAYYCLDSSSVFAAVPLLTLPQEPSLVIDVCAAPGGKSLFAWRSLHPRYLICNETIGKRVGKLIGNLKRCRVHPVGVTSWDSEVLAAEFQGTADVVIVDAPCSGQSLLAKGQKAEGCFHPLTIRHNQRRQKRILAAATTLVRPGGWLLYSTCTFSQDENEDVAAWLMAKFPHLLPQPVPALAAYQSHLAAFPCYRLWPHQGEGAGAFTILWQHQGLEHHHHHH	not failed
MGSTHHHHHHSSGRENLYFQGHMEEEMQRHIKLTPSQTTPVVLVVGDPGRVDKVKMLCDSYVDLAYNREYKSVECTYKGQKFLCVSHGVGSAGCAICFEELMNNGAKVIIRAGSCGSLQPTQMKRGDICICNAAVREDRVSHLMIYSDFPAVADFEVYDTLNKVAQELEVPVFNGISLSSDLYYPHKIIPTRLEDYSKANVAVVEMEVATLMVMGTLRKVKTGGIFIVDGCPLKWDEGDFDNNLVPEKLENMIKISLETCARLAKKY	not failed
MRRVTVPTAPPAYADIGYPMSMLPIKSSRAVSGIQQKQEVLPGMDTPSNSMRPVADDNIDHTSHTPNGVASAFILEATVNVISGPKVLMKQIPIWLPLGIADQKTYSFDSTTAAIMLASYTITHFGKANNPLVRVNRLGQGIPDHPLRLLRMGNQAFLQEFVLPPVQLPQYFTFDLTALKLVTQPLPAATWTDETPSNLSGALRPGLSFHPKLRPVLLPGKTGKKGHVSDLTAPDKIQTIVNLMQDFKIVPIDPAKSIIGIEVPELLVHKLTGKKMSQKNGQPIIPVLLPKYIGLDPISPGDLTMVITPDYDDCHSPASCSYLSEK	not failed
GSSGSSGHADEVWPGLYLGDQDMANNRRELRRLGITHVLNASHSRWRGTPEAYEGLGIRYLGVEAHDSPAFDMSIHFQTAADFIHRALSQPGGKILVHCAVGVSRSATLVLAYLMLYHHLTLVEAIKKVKDHRGIIPNRGFLRQLLALDRRLRQGLEA	not failed

From here, focus on the item given below.
Given the entry MSELARIVPDSEKISHILIEQGRKITFYSYFSNTFVLGIIAYILVDNTVALDKNSLFFVKTLPFRKKDISLSFMLFKFVIMILLYELVMIISTPAIKLVTTVPIEYVIFFIVQHLFYLVVIGVIEFIHCLFTFFLKRRVKQINSLKVIGDSLLMIFATFYFFDFRYGLELFLANQLWSISYMIPITFFLIVVCLMLISIGLLRLISILENQMSQHSKYIYIPFLNKVIFRYKANWYFISFTTVVMLVIFFQSGLRTMLFILTTVMAFSGVLLLSYGDITADFRKQYDLLRIKIRNEWLSQLLLVIMLAMPLLLLCFWGFGELAQLITALSLSLVAIILGYVFPKSQGSLNETTSLLLLFIVFVLVSLLTNRSFGWLILIVLVLLHLLVIKKVRNEKE , report its measured protein production.
failed
